# Tested on: L1210 leukemia ip in BDF1 mice, survival T/C
# assay info: NCI In Vivo Anticancer Drug Screen. Data for tumor model L1210 Leukemia (intraperitoneal) in B6D2F1 (BDF1) mice
# condition context: endpoint: mean survival time; dose: 25.0 mg/kg/injection; schedule: Q04DX003 (ip); vehicle: saline; higher = longer survival
Toxic doses and inconclusive results are not listed.
observed property: T/C

INPUT: I'd like to know its T/C. The compound in question is `CN1CCC(OC(=O)C2CC(=O)N(C)C(=O)C2)CC1`
OUTPUT: 98 % of control

INPUT: Another compound: `CCCN1CCN(c2ccccc2)CC1`
OUTPUT: 90 % of control

INPUT: Record: CC(C(=O)c1ccccc1)C(N[N+](C)(C)C)c1ccccc1 (configuration not stated)
OUTPUT: 97 % of control

INPUT: Now this one: `CC(=O)N1CCC(CC2CCCCC2)CC1`
OUTPUT: 100 % of control

INPUT: Now the same for `CCOC(=O)/C(C#N)=N\O`
OUTPUT: 98 % of control

INPUT: And what about the compound `Cc1cc(=O)[nH]c(NCCCCCC(=O)O)n1` ?
OUTPUT: 104 % of control

INPUT: Ok, now `CCCCCCCCCCCCCCCC(=O)N(CCCN)CCCN`
OUTPUT: 103 % of control

----------
# Test system: L1210 leukemia ip in BDF1 mice, survival T/C
# assay info: NCI In Vivo Anticancer Drug Screen. Data for tumor model L1210 Leukemia (intraperitoneal) in B6D2F1 (BDF1) mice
# condition context: endpoint: mean survival time; dose: 400.0 mg/kg/injection; schedule: Q04DX003 (ip); vehicle: Klucel (hydroxypropylcellulose) (HPC); higher = longer survival
Toxic doses and inconclusive results are not listed.
observed property: T/C

INPUT: Fill blank: measured T/C of the molecule `c1ccc(Cc2cncc(Cc3ccccc3)n2)cc1` is ____.
OUTPUT: 98 % of control

INPUT: Input `c1ccc2c(c1)ccc1oc3ccc4ccccc4c3c12`
OUTPUT: 101 % of control

INPUT: Now consider O=C(O)C(CSC(c1ccccc1)(c1ccccc1)c1ccccc1)NSc1ccccc1[N+](=O)[O-] (stereo unspecified) .
OUTPUT: 95 % of control

INPUT: Now consider `CS(=O)(=O)c1nc(Cl)nc(S(C)(=O)=O)c1Cl` .
OUTPUT: 104 % of control

INPUT: Continue with `CCC(=O)Oc1c(CC=C(C)C)c(OC(=O)CC)c2ccccc2c1OC(=O)CC`
OUTPUT: 96 % of control

INPUT: Now consider CSCC(C(N)=O)c1cc(Cl)ccc1Cl (stereo unspecified) and answer again.
OUTPUT: 96 % of control

INPUT: Field entry: `CCCCCCCCCCCCNC(=O)Nc1cccc(C)c1C`
OUTPUT: 95 % of control

INPUT: Do the same for `O=S(O)c1cc(Br)ccc1Br` please
OUTPUT: 94 % of control

INPUT: Continue with `COc1cc(NC(=O)CC(C)=O)cc2c(C)cc(=O)[nH]c12`
OUTPUT: 102 % of control

INPUT: How about O=C(O)C1(c2ccccc2)OC1c1ccccc1 (stereo unspecified) ?
OUTPUT: 86 % of control

INPUT: // query: `CCC(=O)Oc1ccc(OCc2ccccc2)cc1`
OUTPUT: 95 % of control

INPUT: Param item: `CC(=O)N(C(C)=O)c1ccc2c(c1)-n1cccc1C2=O`
OUTPUT: 98 % of control

INPUT: Then `Cn1ncc2ccccc2c1=O` ?
OUTPUT: 110 % of control

INPUT: Moving on to the next molecule: `O=Cc1cc2c(cc1[N+](=O)[O-])OCO2`
OUTPUT: 92 % of control

INPUT: Entry to check: `O=C1OC(c2ccccc2)(c2ccccc2)c2ccccc21`
OUTPUT: 100 % of control

INPUT: Same lookup for `CC(=O)NN(c1ccccc1)c1ccccc1` , please.
OUTPUT: 91 % of control

INPUT: What do we get for `CC(=O)CC(C)=Nc1ccc(Cl)cc1` ?
OUTPUT: 104 % of control

INPUT: Here is the next molecule: `CCOC(=O)/C=C/c1ccc([N+](=O)[O-])cc1`
OUTPUT: 98 % of control

INPUT: Then this molecule: `COC(=O)NC(=S)Nc1ccccc1NC(=S)NC(=O)OC`
OUTPUT: 87 % of control

INPUT: Cool, now `Cc1cc(CS)c(CS)cc1C`
OUTPUT: 94 % of control

INPUT: Same question, `CCCCCCCCCCCC(=O)NC(=S)Nc1ccccc1OCC` this time
OUTPUT: 89 % of control

INPUT: Thanks! And COc1ccc(C2CCc3cc4c(cc3/C2=N/OC(C)=O)OCO4)cc1OC (stereo unspecified) ?
OUTPUT: 101 % of control

INPUT: And `Cc1c(NC=O)c(=O)n(-c2ccccc2)n1C` ?
OUTPUT: 105 % of control

INPUT: And what about the molecule `Cc1cccc(NC(=O)Nc2ccccc2Cl)c1C` ?
OUTPUT: 96 % of control

INPUT: How about CCCCCCCCCCCCCCCC1=NN(c2ccccc2)C(=O)C1N=Nc1ccccc1 (stereo unspecified) ?
OUTPUT: 94 % of control

INPUT: And then `Cc1[nH]c(=O)[nH]c(=O)c1C` , what is it?
OUTPUT: 91 % of control
